# procedure-summary: Solubility of the compound in aqueous medium at pH 7
# Assay type: physicochemical
# measurement-conditions: aqueous medium, read-out: solubility

{"columns": ["chemical-structure", "solubility"],
 "data": [
  ["CCNCCc1c(C(=O)NCc2ccccc2OCC(F)(F)F)nn(-c2ccccc2)c1-c1ccccc1", "429 µg/mL"]
]}

----------
# procedure-summary: Intrinsic clearance in rat liver microsomes assessed per mg protein
# Type: ADME, microsome
# measurement-conditions: read-out: CLH

{"columns": ["chemical-structure", "microsomal CLint / µL/min/mg"],
 "data": [
  ["CCNCCc1c(C(=O)NCc2ccccc2OCC(F)(F)F)nn(-c2ccccc2)c1-c1ccccc1", 377]
]}

----------
# procedure-summary: Plasma concentration in Wistar rat at 100 mg/kg, po measured after 1 hr
# Type: ADME, organism-based
observed-property: concentration at 1 h (nM)

{"columns": ["chemical-structure", "result-unit", "measurement"],
 "data": [
  ["CCNCCc1c(C(=O)NCc2ccccc2OCC(F)(F)F)nn(-c2ccccc2)c1-c1ccccc1", "nM", 810]
]}
